System: TLK1
Settings: concentration: 1 μM, replicates: in singlicate; n = 1;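 note: KINOMEscan kinase panel screen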
READOUT KIND: %Inh (%)
Give the value in % but do not write % after it.

Past entries and their recorded results:
[[record]]
molecule = "Fc1cc(Cl)ccc1Nc1ccnc2cc(I)ccc12 [GW551191]"
assay_result = 21

[[record]]
molecule = "COc1ccccc1-c1ccc2c(NC(=O)C3CC3)n[nH]c2n1 [SB-711239]"
assay_result = 0

[[record]]
molecule = "COC(=O)c1c(-c2ccccc2)c2cc(C(=O)O)ccc2c(=O)n1Cc1ccccc1"
assay_result = 10

[[record]]
molecule = "Cc1cc(-c2ccc3c(c2)CC[C@@H](N[C@@H](C)c2ccccc2)C3)cnc1N.Cl [GW412617]"
assay_result = 4

[[record]]
molecule = "CCCc1ccc(S(=O)(=O)NC2CCN(c3ccnc(Nc4ccc(F)cc4)n3)C2)cc1 (stereo not drawn) [GSK1379715]"
assay_result = 0

[[record]]
molecule = "Cl.c1ccc(-c2n[nH]cc2-c2ccnc(-c3ccc(CN4CCOCC4)cc3)c2)nc1 [GW776245]"
assay_result = 0

[[record]]
molecule = "O=C(Nc1n[nH]c2nc(-c3nccs3)c(Br)cc12)C1CC1 [SB-742251]"
assay_result = 0

[[record]]
molecule = "O=C(Nc1n[nH]c2nc(-c3nccs3)c(Br)cc12)C1CCCC1 [SB-742609]"
assay_result = 0


Dear colleague, I am looking for the recorded %Inh of the following molecule: CCn1c(-c2ccccn2)nc2cnccc21 [SB-736398] 0

---

Test system: DCAMKL1
Construct: gene DCLK1
Settings: concentration: 1 μM, replicates: in singlicate; n = 1
Output schema: class label derived from %Inh. Mapping: lower band (below 3%), central band (3% to below 10%), upper band (10% or more)

The examples below pair each entry with its known result.
[[record]]
molecule = "Cc1cc(N2Cc3ccccc3C2)nc(Nc2ccc(S(=O)(=O)N3CCOCC3)cc2)n1.Cl [GSK1669917]"
label = "upper band"

[[record]]
molecule = "COc1ccc(C2=C(Nc3cccc(C(=O)O)c3)C(=O)NC2=O)cc1 [SB-390765]"
label = "upper band"

[[record]]
molecule = "O=C(Nc1n[nH]c2nc(-c3nccs3)c(Br)cc12)C1CCCC1 [SB-742609]"
label = "central band"

[[record]]
molecule = "COc1cc2nccc(Nc3ccc(NC(=O)c4ccc(C)cc4)c(O)c3)c2cc1OC.Cl [GW440132]"
label = "central band"

[[record]]
molecule = "COc1ccc(Nc2nccc(NCCNC(=O)Nc3ccccc3F)n2)cc1 [GSK1379901]"
label = "upper band"

[[record]]
molecule = "Cc1ccc(NC(=O)Nc2cc(C(C)(C)C)nn2-c2ccccc2)cc1 [GSK1014915]"
label = "lower band"

[[record]]
molecule = "Cc1c(O)cccc1Nc1ccnc2ccc(C(F)(F)F)cc12.Cl [GW466413]"
label = "lower band"

[[record]]
molecule = "Clc1cc(Cl)cc(Nc2ccnc(Nc3cc(Cl)cc(Cl)c3)n2)c1 [GSK175726]"
label = "lower band"


In plain terms, what class is `NC(=O)c1nnc2ccccc2c1N` ? central band

Lab log: COc1ccc(CNC(=O)NC2CCN(c3ccnc(Nc4cc(OC)c(OC)c(OC)c4)n3)C2)cc1 (stereo not shown) [GSK1379748] — assign %Inh category central band

Which of the defined bands does the recorded %Inh of `Fc1cccc(COc2nnc(-c3ccc4c(c3)CCO4)o2)c1` sit within? central band

Where would `O=C(Nc1ccccc1)Nc1cccc(Oc2ccc3nccn3n2)c1` land among the classes by reported %Inh? lower band

---

Test system: CLK2
Conditions: concentration: 1 μM, replicates: in singlicate; n = 1
READOUT KIND: %Inh
Units required after the number.

# lookup: %Inh of `COc1ccc(Nc2nccc(NCCNC(=O)Nc3ccccc3F)n2)cc1` 0%

---

System: SIK2
Details: concentration: 1 μM, replicates: in singlicate; n = 1
Recorded %Inh values for a group of compounds are listed next.
Just the number in %, nothing appended.

Some solved cases for reference:
[[record]]
compound = "O=C1NC(=O)C(N2CCc3ccccc32)=C1c1ccccc1Cl [SB-373598]"
value_unit = "%"
assay_result = 6

[[record]]
compound = "Cc1ccc(NC(=O)Nc2cc(C(C)(C)C)nn2-c2ccccc2)cc1 [GSK1014915]"
value_unit = "%"
assay_result = 4

[[record]]
compound = "CCn1c(-c2cccnc2O)nc2cnccc21 [SB-736715]"
value_unit = "%"
assay_result = 0


Moving on to the next compound.
Find the recorded %Inh belonging to Cc1ccc(-c2cc(-c3c[nH]nc3-c3ccccn3)ccn2)cc1 [GW684088] and report it. 0

---

Tested on: EPHA3
Conditions: concentration: 1 μM, replicates: in singlicate; n = 1
In this section we review reported %Inh values for a set of compounds.
Write it as a number; the unit % goes unstated.

[[record]]
compound_structure_string = "CC(=O)Nc1nc2cnc(Nc3cc(NC(=O)c4cccc(CCC#N)c4)ccc3C)nc2s1"
assay_result = 0

[[record]]
compound_structure_string = "C[C@@H]1CCCCN1c1cc(-c2ccc3c(N)n[nH]c3c2)nc(N)n1"
assay_result = 7

[[record]]
compound_structure_string = "Cn1ccc2ncnc(Oc3cccc(C(=O)Nc4ccccc4)c3)c21"
assay_result = 0


Report %Inh for `Cl.O=C(Nc1cccc(-c2nn3ncccc3c2-c2ccnc(Nc3cccnc3)n2)c1)c1c(F)cccc1F` please. 2

Look up %Inh for this compound: `COc1cc2nccc(Nc3ccc(NC(=O)c4ccc(C)cc4)c(O)c3)c2cc1OC.Cl` 0

Which measured %Inh value corresponds to `Fc1cccc(COc2nnc(-c3ccc4c(c3)CCO4)o2)c1` ? 0

Need %Inh, item `Cc1cccc(-c2nc(C)cc(Nc3ccncc3)n2)n1` 0

Entry `CCn1c(-c2ccccn2)nc2cnccc21` has what %Inh? 0

I have this compound here, `Cc1c(O)cccc1Nc1ccnc2ccc(C(F)(F)F)cc12.Cl` , and I need its recorded %Inh. 3

Returns the measured %Inh for the input compound. Input: `Cc1cccc(-c2nc(Nc3ccc4[nH]ncc4c3)c3ccccc3n2)n1` 0

Recorded %Inh of `O=c1cc(N2CCOCC2)nc2n(Cc3cccc(Cl)c3Cl)ccn12` , please. 18

Name the recorded %Inh for `Cl.c1ccc(-c2n[nH]cc2-c2ccnc(-c3ccc(CN4CCOCC4)cc3)c2)nc1` . 1

Request the reported %Inh associated with `O=C1NC(=O)C(N2CCc3ccccc32)=C1c1ccccc1Cl` 12

What measured %Inh goes with `Cl.Oc1ccc(-c2nc(-c3ccccc3)[nH]c2-c2ccncc2)cc1` ? 0

What %Inh value was documented for this compound, `CN1C(=O)C(Nc2ccc(Cl)c(C(=O)O)c2)=C(c2ccc(Cl)cc2)C1=O` ? 18

Given `CC(C)(C)c1ccc(C(=O)Nc2cn3cc(Cl)ccc3n2)cc1` , state its recorded %Inh. 65

What value of measured %Inh is listed for `Cc1ccc(NC(=O)Nc2cccc(Cl)c2)cc1-c1ccc(C(=O)Nc2ccncc2)cc1` ? 0

# input compound: `Fc1cc(Cl)ccc1Nc1ccnc2cc(I)ccc12` ; wanted: its %Inh 0

Request the reported %Inh associated with `CS(=O)(=O)c1ccc(-c2c(-c3ncn[nH]3)sc(N3CCOCC3)c2C#N)cc1` 0

---

Catalogue of %Inh readings, one per entry.
Tested on: NEK10
Conditions: concentration: 1 μM, replicates: in singlicate; n = 1
Form entry: value (%) — number only.

Here are 5 molecules together with their reported answers.
[[record]]
molecule = "Cc1csc(-c2nc(Nc3ccncc3)c3ccccc3n2)n1"
assay_result = 17

[[record]]
molecule = "Cn1ccc2ncnc(Oc3cccc(C(=O)Nc4ccccc4)c3)c21"
assay_result = 0

[[record]]
molecule = "Cc1cccc(-c2cc(Nc3ccncc3)c3ccccc3n2)n1"
assay_result = 0

[[record]]
molecule = "Fc1cccc(COc2nnc(-c3ccc4c(c3)CCO4)o2)c1"
assay_result = 0

[[record]]
molecule = "CS(=O)(=O)c1ccc(-c2nc3n(c2-c2ccncc2)CCC3)cc1"
assay_result = 17


Now let's try a different one.
What %Inh value was documented for this molecule, COc1cc2ncn(-c3cc(OCC4CCCO4)c(C(N)=O)s3)c2cc1OC (stereo not shown) ? 0

---

This section presents compounds with their documented %Inh values.
Tested on: JAK2(JH1domain-catalytic)
Conditions: concentration: 1 μM, replicates: in singlicate; n = 1
Express it in %; write the number only.

Fill blank: measured %Inh of the compound COc1cccc(NC(=O)NC2CCN(c3ccnc(Nc4ccc(F)cc4)n3)C2)c1 (stereo not shown) is ____. 20

---

Listed here: items and their measured %Inh.
Test system: MERTK
Settings: concentration: 1 μM, replicates: in singlicate; n = 1
Note: unit % is implicit; provide only the numeric part.

A selection of reference data follows.
[[record]]
molecule = "Fc1cc(Cl)ccc1Nc1ccnc2cc(I)ccc12"
test_target = "MERTK"
readout_kind = "%Inh"
assay_result = 30

[[record]]
molecule = "COc1ccc(Nc2nccc(-c3cccc(NC(=O)c4cc5cc(F)ccc5[nH]4)c3)n2)cc1"
test_target = "MERTK"
readout_kind = "%Inh"
assay_result = 47

[[record]]
molecule = "CCn1c(-c2cccnc2O)nc2cnccc21"
test_target = "MERTK"
readout_kind = "%Inh"
assay_result = 26


Lab request: please report %Inh under test system MERTK for `Cc1ccc(C(=O)Nc2ccc(Nc3ccnc4cc(-c5ccccn5)ccc34)cc2O)cc1.Cl` 33

Request body: readout %Inh, system MERTK, query `Fc1cccc(COc2nnc(-c3ccc4c(c3)CCO4)o2)c1` . Return the value. 0

Value wanted: %Inh (MERTK) of entry `CC(C)(C)c1ccc(C(=O)Nc2cn3cc(Cl)ccc3n2)cc1` 0

Lab request: please report %Inh under test system MERTK for `O=C(Nc1n[nH]c2nc(-c3nccs3)c(Br)cc12)C1CC1` 12

Tell me reported %Inh for `CC(C)(C)c1ccc(C(=O)Nc2cn3cc(-c4cccnc4)ccc3n2)cc1` , tested with MERTK. 26
